# run-description: Aggregation property of the compound in water at pH 7 assessed as light scattering intensity counts at 100 uM in absence of Triton X-100 by dynamic light scattering method
# Format: physicochemical
# setup-conditions: buffer, pH 7, 100 µM
Activity vs 300 kCounts: at or above is criterion met, below is criterion not met.

### Prompt Record `O=C(Nc1nnc(-c2ccccc2Cl)o1)c1cccc(Oc2ccccc2)c1` ; criterion: Activity no lower than 300 kCounts. Met?
### Response criterion met

### Prompt Entry `Cc1cc(C)c2sc(N3CCCC3)nc2c1` : is its Activity no less than 300 kCounts?
### Response criterion not met

### Prompt API: above_or_equal(metric=Activity, cutoff=300 kCounts) for item `CCOc1ccc(C(=O)Nc2nnc(-c3ccc(C)cc3C)o2)cc1`
### Response criterion not met

### Prompt Test whether the compound `Cc1ccc(-c2nnc(NC(=O)c3ccccc3Cl)o2)c(C)c1` records Activity of 300 kCounts or higher.
### Response criterion not met

### Prompt Entry `Cc1ccc(-c2nnc(NC(=O)c3ccc([N+](=O)[O-])o3)o2)c(C)c1` : is its Activity no less than 300 kCounts?
### Response criterion not met

### Prompt Kindly determine if Activity recorded for `Cc1ccc(C)c(-c2nnc(NC(=O)c3ccc([N+](=O)[O-])s3)o2)c1` is above or exactly 300 kCounts.
### Response criterion not met

### Prompt Determine whether this compound has Activity no lower than 300 kCounts: `CCCCC(=O)Nc1nnc(-c2ccc3c(c2)CCCC3)o1`
### Response criterion not met

### Prompt Reported Activity reaches at least 300 kCounts for `CCc1cccc2sc(N(CCCn3ccnc3)C(=O)/C=C/c3cccs3)nc12` ?
### Response criterion met

### Prompt Given `CCSc1ccc(C(=O)Nc2nnc(-c3ccco3)o2)cc1` , state whether its Activity is at least 300 kCounts.
### Response criterion not met

### Prompt Exam item: decide whether the reported Activity for `CCSc1ccc(C(=O)Nc2nnc(-c3ccc4c(c3)CCCC4)o2)cc1` is at least 300 kCounts.
### Response criterion met

### Prompt // inclusive: Activity at least 300 kCounts? input: `CSc1ccc2nc(Nc3nc4ccc(NC(C)=O)cc4s3)sc2c1`
### Response criterion not met

### Prompt Please tell me: is the compound `CC(C)(C)C(=O)Nc1nnc(-c2ccc(Br)cc2)o1` at or over 300 kCounts in terms of Activity?
### Response criterion not met

----------
# run-description: Aggregation property of the compound in ammonium acetate buffer at pH 7.6 assessed as light scattering intensity counts at 100 uM in presence of Triton X-100 by dynamic light scattering method
# Assay type: physicochemical
# setup-conditions: pH 7.6, 100 µM
assay-endpoint: Activity
The reply must contain the numeric value and, after it, the unit.

### Prompt Entry under review: `CCSc1ccc(C(=O)Nc2nnc(-c3ccco3)o2)cc1` . Reported Activity?
### Response 100 kCounts

### Prompt Which Activity value is on record for `Cc1cc(C)c2sc(N3CCCC3)nc2c1` ?
### Response 139 kCounts

### Prompt Suppose we examine the molecule `O=C(Nc1nnc(-c2ccccc2Cl)o1)c1cccc(Oc2ccccc2)c1` ; what Activity value has been reported?
### Response 180 kCounts

### Prompt For the molecule shown here, `Cc1ccc(-c2nnc(NC(=O)c3ccc([N+](=O)[O-])o3)o2)c(C)c1` , give the reported Activity.
### Response 83 kCounts

### Prompt Would you mind telling me what Activity value was observed for `Cc1ccc(C)c(-c2nnc(NC(=O)c3ccc([N+](=O)[O-])s3)o2)c1` ?
### Response 85 kCounts

### Prompt # lookup: Activity of `O=C(/C=C/c1ccccc1)Nc1nnc(-c2ccc3c(c2)CCCC3)o1`
### Response 141 kCounts

### Prompt Entry `CC(C)(C)C(=O)Nc1nnc(-c2ccc(Br)cc2)o1` : reported Activity = ?
### Response 100 kCounts

### Prompt Look at this molecule and give its reported Activity. `O=C(c1cccs1)N(CCCn1ccnc1)c1nc2c(F)cc(F)cc2s1`
### Response 150 kCounts

### Prompt # Activity lookup, item `CCOc1ccc(C(=O)Nc2nnc(-c3ccc(C)cc3C)o2)cc1`
### Response 123 kCounts

### Prompt Recorded Activity for `CCCCC(=O)Nc1nnc(-c2ccc3c(c2)CCCC3)o1` , please?
### Response 131 kCounts
